Hey, just so you know, these numbers are from patent USRE40793E1.

Tested on: conscious dogs
procedure.details: Gastric emptying of an acaloric liquid test meal delayed by administration of lidamidine, in conscious dogs
Type: in vivo, beagle dogs
test.settings: Canis lupus familiaris, compounds; dose 0.01 mg/kg; conscious dog; Δt = t 70% compound minus t 70% solvent, relative to t 70% solvent; read-out: ΔT/T^a (acceleration of gastric emptying of a liquid meal delayed by lidamidine)
Description: C. Pharmacological Examples C.1. Gastric Emptying of an Acaloric Liquid Test Meal Delayed by Administration of Lidamidine, in Conscious Dogs Female beagle dogs, weighing 7-14 kg, were trained to stand quietly in Pavlov frames. They were implanted with a gastric cannula under general anesthesia and aseptic precautions. […] In the 1 ml samples of the gastric contents, the glucose concentrations were measured on a Hitachi 717 automatic analyzer by the hexokinase method (Schmidt, 1961). […]
Below: a set of entries, each annotated with reported change in vivo at 0.01 mg/kg.
reported.endpoint: change in vivo at 0.01 mg/kg (%)

compound | test.system | obs.value
COCCCN1CC[C@@H](CNC(=O)c2cc(Cl)c(N)c3c2OCC3)[C@H](OC)C1 (relative stereo) | conscious dogs | -59
CC(=O)CCCN1CC[C@@H](CNC(=O)c2cc(Cl)c(N)c3c2OCC3)[C@H](O)C1 (relative stereo) | conscious dogs | -36
CO[C@@H]1CN(CCCC(C)=O)CC[C@H]1CNC(=O)c1cc(Cl)c(N)c2c1OCC2 (relative stereo) | conscious dogs | -56
CCCCN1CC[C@@H](CNC(=O)c2cc(Cl)c(N)c3c2OCCO3)[C@H](O)C1 (relative stereo) | conscious dogs | -29
CC(=O)CCCN1CC[C@H](CNC(=O)c2cc(Cl)c(N)c3c2OCC3)[C@H](O)C1 (relative stereo) | conscious dogs | -8
CCCCN1CC[C@@H](CNC(=O)c2cc(Cl)c(N)c3c2OCCC3)[C@H](O)C1 (relative stereo) | conscious dogs | -50
CCCCN1CC[C@@H](CNC(=O)c2cc(Cl)c(N)c3c2OCC3)[C@H](O)C1 (relative stereo) | conscious dogs | -34
COCCCN1CC[C@@H](CNC(=O)c2cc(Cl)c(N)c3c2OCC3)[C@H](O)C1 (relative stereo) | conscious dogs | -73
